Measured values drawn from patent USRE35224E for this set.

- TARGET_DESC: natural suppressor cells (Mus musculus, UniProt P97292)
- Construct: cAMP accumulation
- Sequence (P97292 whole entry): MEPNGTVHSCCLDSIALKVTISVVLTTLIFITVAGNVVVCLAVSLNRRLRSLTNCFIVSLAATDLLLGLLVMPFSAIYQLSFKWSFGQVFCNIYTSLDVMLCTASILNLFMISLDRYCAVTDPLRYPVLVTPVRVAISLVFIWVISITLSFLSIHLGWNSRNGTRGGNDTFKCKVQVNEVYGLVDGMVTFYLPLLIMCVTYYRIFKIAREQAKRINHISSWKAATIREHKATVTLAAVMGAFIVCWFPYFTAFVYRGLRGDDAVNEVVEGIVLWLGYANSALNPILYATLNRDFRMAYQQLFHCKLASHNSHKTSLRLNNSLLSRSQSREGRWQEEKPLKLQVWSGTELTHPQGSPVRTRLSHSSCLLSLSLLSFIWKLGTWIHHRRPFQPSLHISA
- ASSAY_DETAILS: Effects of histamine derivatives on cAMP accumulation in natural suppressor (NS) cells
- Assay type: cell-based, mouse (BALB/c)
- RECORDED_CONDITIONS: NS cells; histamine = 1.0
Where a name gives a salt, the structure may show the parent alone.
ASSAY_METRIC: Relative potency

{"columns": ["COMPOUND", "Relative potency"],
 "data": [
  ["Cc1ccc(NC(=O)CCCCC(C)NCCc2c[nH]cn2)cc1 (stereo not shown)", "0.3 × 10^1"],
  ["Cc1ccc(NC(=O)CCCCNCCc2c[nH]cn2)cc1 [Compound 5, Dihydrochloride]", "0.2 × 10^1"],
  ["CCCCCC(C)NCCc1c[nH]cn1 (stereo not shown)", "Inactive"],
  ["Cc1ccc(NC(=O)CCCCCC(C)NCCc2c[nH]cn2)cc1 (stereo not shown)", "0.2 × 10^1"],
  ["Cc1ccc(NC(=O)CCCC(C)NCCc2c[nH]cn2)cc1 (stereo not shown)", "3.8 × 10^3"],
  ["CC(CCCCC(=O)Nc1ccc(C(F)(F)F)cc1)NCCc1c[nH]cn1 (stereo not shown)", "4.3 × 10^4"],
  ["Cc1ccc(NC(=O)CCCC(=O)NCCc2c[nH]cn2)cc1", "0.4 × 10^1"],
  ["CCCCCCNCCc1c[nH]cn1 [Compound 1, Dihydrochloride]", "0.5 × 10^1"],
  ["CCCCNC(=O)CCCCC(C)NCCc1c[nH]cn1 (stereo not shown)", "Inactive"]
]}

Field: next compound
Ask: Would you kindly share the measured Relative potency for CC(CCCCC(=O)Nc1ccccc1C(F)(F)F)NCCc1c[nH]cn1 (stereo not shown) ?
Result: Inactive
